Value source: ChEMBL document CHEMBL1201862

# Tested on: SNB-19
# assay name: NCI tumour cell line growth inhibition, 48 h
Activity calls are given as the source filed them. Rule as the data show it: active = GI50 up to about 1.1 µM and inactive = higher.
recorded metric: GI50

COc1ccc(C2C(=O)C(Cl)N2Nc2nc(C)cc(O)n2)cc1OC (stereo unspecified) ... 40.5 µM (inactive)
O=C(CC1C(=O)Nc2ccccc2[S+]1[O-])Nc1cc(Cl)ccc1Cl (stereo unspecified) ... > 100 µM (inactive)
CCSc1nc(COC(=O)NC)c(COC(=O)NC)n1C ... > 100 µM (inactive)
COCOC1/C=C/CCCCC2=C(C)C=C(C1)O2 (stereo unspecified) ... > 100 µM (inactive)

Just so you know, measured GI50 for Cn1c(S)nnc1-c1csc(-c2ccc(Cl)cc2)n1 came out at 17.5 µM (inactive)

Just so you know, measured GI50 for O=C1Nc2ccccc2NC1C1OC(c2ccccc2)=CC1=O (stereo unspecified) came out at > 100 µM (inactive)

Just so you know, measured GI50 for COc1cc2c(cc1O)C(Cc1ccc(OCc3ccccc3)c(OCc3ccccc3)c1)N(C(=O)NCCc1ccccc1)CC2 (stereo unspecified) came out at > 100 µM (inactive)

----------
# System: SNB-75
# assay name: NCI tumour cell line growth inhibition, 48 h
Active and inactive are the calls of the source. Cut-off read from the data, not from the text of the source: active = GI50 up to about 1.1 µM and inactive = higher.
Choose one outcome from this list and give only that: 1.0 (active), 0.0 (inactive)

O=C1C(Cl)=C(Cl)C(=O)N1c1ccccc1Cl ... 0.0
CCc1ccc2oc(-c3cc(O)c(-c4nc5cc(CC)ccc5o4)cc3O)nc2c1 ... 0.0
COc1cc(C2C3=C(COC3=O)Oc3cc4c(cc32)OCO4)ccc1OC(C)=O (stereo unspecified) ... 1.0

Q: Please share the test call associated with CC(=O)OCC1OC(N=[N+]=[N-])C(OC(C)=O)C(OC(C)=O)C1OC1OC(COC(C)=O)C(OC(C)=O)C(OC(C)=O)C1OC(C)=O (stereo unspecified) .
A: 0.0

Q: Please share the test call associated with CCN(CCCl)CCNc1c2ccccc2nc2ccc(OC)cc12 .
A: 1.0

----------
# Test system: PC-3
# assay name: NCI tumour cell line growth inhibition, 48 h
Active and inactive are the calls of the source. Rule as the data show it: active = GI50 up to about 1.1 µM and inactive = higher.
Choose one outcome from this list and give only that: label 1 = active, label 0 = inactive

O=[N+]([O-])/C=C/c1cccc(F)c1 ... label 0
CC1NOC(NS(=O)(=O)c2ccc(/N=N/c3c(O)c(C(=O)O)cc4ccccc34)cc2)C1C (configuration not stated) ... label 0
COC(=O)CCC(C)[C@H]1CCC2C3C(C[C@H](OC(C)=O)[C@@]21C)[C@@]1(C)CCC2(C[C@H]1C[C@H]3OC(C)=O)OOC1(CCC(C(C)(C)C)CC1)OO2 (some centres not stated) ... label 0

--- query ---
Q: Please share the test call associated with O=C(O)c1ccccc1/C=N\N(CCO)C1=NCCN1 .
A: label 0

----------
# System: U-251
# assay name: NCI tumour cell line growth inhibition, 48 h
Activity calls are given as the source filed them. Cut-off read from the data, not from the text of the source: active = GI50 up to about 1.1 µM and inactive = higher.
Choose one outcome from this list and give only that: active, inactive

O=C1Nc2ccccc2NC1C1OC(c2ccccc2)=CC1=O (stereo not given) ... inactive
COc1cc2c(cc1O)[C@]1(Cc3ccc4c(c3C1=O)OCO4)N(C)CC2 ... inactive
CC(=O)N(C(=O)CC(=O)N1N=C(c2ccccc2)C(/N=N/c2ccccc2[N+](=O)[O-])C1=O)c1ccc(Cl)cc1 (stereo not given) ... inactive
N#CCCN(CCC#N)c1ccc(/C=C2\N=C(c3ccccc3)N(c3ccccc3)C2=O)cc1 ... inactive

Q: Please share the test call associated with C=C1C(=O)O[C@H]2C[C@@H]1[C@@H](O)[C@H](O)[C@@H](C)CCCC(C)=CCC[C@@]2(C)O .
A: inactive

Q: Please share the test call associated with COc1cc(/C=C(\OC(C)=O)c2ccc3c(c2)OCO3)cc(OC)c1OC .
A: inactive

Q: Please share the test call associated with O=C(O)CCC(NC(=O)c1ccc(CNc2nc3ccccc3nc2C(=O)O)cc1)C(=O)O (stereo not given) .
A: inactive

Q: Please share the test call associated with CC(C)(C)C1CCC2c3c([nH]c4ccccc34)C3C(=O)N(c4ccccc4)C(=O)C3C2C1 (stereo not given) .
A: inactive
